B1: Pistol ribozyme (parent)
chain: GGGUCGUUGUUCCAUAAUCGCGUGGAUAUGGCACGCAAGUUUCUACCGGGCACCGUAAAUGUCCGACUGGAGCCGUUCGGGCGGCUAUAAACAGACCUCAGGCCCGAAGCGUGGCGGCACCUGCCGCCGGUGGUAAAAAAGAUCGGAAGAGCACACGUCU

- Variants of: B1
- protocolSummary: aptazyme ON/OFF ratio, guanine; higher = stronger switching; co-transcriptional cleavage with and without guanine
Catalogue of aptazyme ON/OFF ratio values
Answer with a bare number; do not write a unit.

{"columns": ["mut", "aptazyme ON/OFF ratio"],
 "data": [
  ["U7C G9A U10C U11A C12G", 1.14]
]}

Prompt line: Return aptazyme ON/OFF ratio (reported value) for this variant: U7G G9C U10A U11G C12A C13U
Response line: 1.14

Prompt line: Return aptazyme ON/OFF ratio (reported value) for this variant: U7G U8C G9C U10A U11C C12G C13U
Response line: 1.31

Prompt line: Return aptazyme ON/OFF ratio (reported value) for this variant: U7C U8G G9U U10C U11A C13U
Response line: 1.35

Prompt line: Return aptazyme ON/OFF ratio (reported value) for this variant: U7A U8G G9A U10A U11G C12G C13G
Response line: 1.46

Prompt line: Return aptazyme ON/OFF ratio (reported value) for this variant: U7C U8A G9U U10G U11C C12G C13U
Response line: 1.24

Prompt line: Return aptazyme ON/OFF ratio (reported value) for this variant: U7A U8C G9A C12A C13G
Response line: 1.14

Prompt line: Return aptazyme ON/OFF ratio (reported value) for this variant: U7A G9A U11G C12A C13G
Response line: 1.28

Prompt line: Return aptazyme ON/OFF ratio (reported value) for this variant: U7A U8A U10C U11A C12G C13G
Response line: 1.24

Prompt line: Return aptazyme ON/OFF ratio (reported value) for this variant: U7G C12U C13U
Response line: 1.36

Prompt line: Return aptazyme ON/OFF ratio (reported value) for this variant: U7G G9A U10C U11G C12G C13A
Response line: 1.09
